Test system: SK-MEL-28 melanoma
Test: NCI-60 one-dose screen, 48 h
Conditions: 10 µM unless noted
This is part of a sample that, as a whole, favours compounds with a hit. Of some 83,000 tested, about 20% had one in any assay. Calls of active or inactive are those of the source. Rule for the calls: active = growth percent below 10; inactive = the rest.
# valid calls are active, inactive; nothing else

Field: example entries. Status: answers known.
CC(C)=CCC[C@](C)(O)[C@H]1CC[C@]2(C)[C@@H]1CC[C@@H]1[C@@]3(C)CC/C(=N/O)C(C)(C)[C@@H]3CC[C@]12C active
CCOC(=O)COc1c(C)cc(SSc2cc(C)c(OCC(=O)OCC)c(C)c2)cc1C inactive
CCCCCCCCCCCCCC[n+]1cccc(C(N)=O)c1 inactive
O=C(NNc1ccc(-c2ccccc2)nn1)c1ccc(F)cc1 inactive
CCOC(=O)C(=Cc1ccccc1[N+](=O)[O-])C(=O)OCC inactive

Hello, I am checking results. What call was entered for CCN(CC)c1cc(N)c(Cc2c(N)cc(N(CC)CC)cc2Cl)c(Cl)c1 ?
inactive

* * *

System: CCRF-CEM leukemia
Assay: NCI-60 one-dose screen, 48 h
Conditions: 10 µM unless noted
Compounds without any hit were thinned out: in the full panel of roughly 83,000, 20% have a hit. Active and inactive are the calls of the source. Rule for the calls: active = growth percent below 10; inactive = the rest.
# valid calls are active, inactive; nothing else

Field: example entries. Status: answers known.
MOLECULE	CAT
CC1(C)S[C@@H]2[C@H](NC(=O)[C@H](C(=O)O)c3cccs3)C(=O)N2[C@H]1C(=O)O	inactive
O=C(Nc1cccc(F)c1)c1cc(=O)[nH]c2cc(Br)ccc12	inactive
COc1cc2c(c(OC)c1)C1c3cc(OC)ccc3NC(=O)N1CC2 (stereo not given)	inactive
O=C1CC(c2ccc3c(c2)OCO3)Nc2ccccc21 (stereo not given)	inactive
COc1ccc(/C=C/C=C\C(=O)c2ccc(-n3ccnc3)cc2)cc1	inactive
CC(=O)O.CC(=O)O.O.[Fe]	inactive

Hello, I am checking results. What call was entered for CC(C)C1=NOC(=O)C1=Cc1cn(-c2ccccc2)nc1-c1ccccc1 ?
active

Hello, I am checking results. What call was entered for O=C1/C(=C\c2cccn2Cc2ccccc2)c2ccccc2N1c1c(Cl)cccc1Cl ?
inactive

Hello, I am checking results. What call was entered for COC(=O)c1cc(O)c2c(c1C(=O)OC)C[C@H]1[C@@H]3CC=C4C[C@@H](O)CC[C@]4(C)[C@H]3CC[C@]21C ?
inactive

Hello, I am checking results. What call was entered for CN(C)c1cc(NN=C(c2ccc(O)cc2)c2ccc(O)cc2)c([N+](=O)[O-])cc1[N+](=O)[O-] ?
inactive

* * *

The entries below are paired with their reported growth.
Tested on: SW-620 colon
Assay: NCI-60 one-dose screen, 48 h (100 = growth as untreated, 0 = no growth, -100 = all killed)
Conditions: 10 µM unless noted
This is part of a sample that, as a whole, favours compounds with a hit. Of some 83,000 tested, about 20% had one in any assay.
Give the value, in units of %, as a plain number.

As a guide, the following entries are already answered.
COc1ccc(-c2cc(-c3ccccc3)nc(NCCNc3ccnc4cc(Cl)ccc34)n2)cc1 -68.2
O=S(=O)(NCCCNc1nccc(-c2c(-c3cccc(F)c3)nc3occn23)n1)c1cccc2ccccc12 24.2

Consider the record given below.
growth for O=C1COCCN1c1ccc(NCc2cn(Cc3cccc4ccccc34)c3ccccc23)cc1 ?
83
